Tested on: human neuroblastoma cell line (SH-SY5Y)
protocol: MTT assay, tumor cell proliferation inhibition, SH-SY5Y
Format: cell-based
condition set: SH-SY5Y, 72 h, read-out: Tumor inhibition rate (IC50)
Entries and their pIC50
Remember the convention: pIC50 equals -log10 of concentration in molar.

GET /values?readout=pIC50&item= Fc1ccc(COc2cccc(Nc3ncnc4cc5c(cc34)OCCOCCOCCOCCO5)c2)cc1 [Compound 25]
4.70

What value of measured pIC50 is listed for c1ccc(COc2ccccc2Nc2ncnc3cc4c(cc23)OCCOCCOCCOCCO4)cc1 [Compound 27] ?
4.62

Requested field: pIC50. Item: Fc1ccc(COc2cccc(Nc3ncnc4cc5c(cc34)OCCOCCO5)c2)cc1Cl [Compound 14]
4.64

Entry Fc1ccc(COc2ccc(Nc3ncnc4cc5c(cc34)OCCOCCOCCOCCO5)cc2)cc1 [Compound 26] : reported pIC50 = ?
4.41

Please look up its pIC50: Fc1ccc(COc2ccccc2Nc2ncnc3cc4c(cc23)OCCOCCO4)cc1 [Compound 4]
4.07

More entries:
Value lookup for pIC50; key = O=[N+]([O-])c1ccc(COc2ccc(Nc3ncnc4cc5c(cc34)OCCOCCOCCO5)cc2)cc1 [Compound 20]
4.23

What does the data say about its pIC50? Entry: Fc1ccc(COc2ccc(Nc3ncnc4cc5c(cc34)OCCOCCOCCO5)cc2)cc1 [Compound 17]
4.68

Report pIC50 for FC(F)(F)c1ccc(COc2cccc(Nc3ncnc4cc5c(cc34)OCCOCCOCCOCCO5)c2)cc1 [Compound 34] please.
5.07

Name the recorded pIC50 for N#Cc1ccc(COc2ccc(Nc3ncnc4cc5c(cc34)OCCOCCOCCO5)cc2)cc1 [Compound 11] .
5.00

Which pIC50 is reported for this compound? c1ccc(COc2cccc(Nc3ncnc4cc5c(cc34)OCCOCCOCCO5)c2)cc1 [Compound 21]
4.64

If you can, please state the reported pIC50 value of FC(F)(F)c1ccc(COc2ccc(Nc3ncnc4cc5c(cc34)OCCOCCO5)cc2)cc1 [Compound 9] .
4.52

---

Tested on: human neuroblastoma cell line (SH-SY5Y)
protocol: MTT assay, tumor cell proliferation inhibition, SH-SY5Y
Type: cell-based
condition set: SH-SY5Y, 72 h, read-out: Tumor inhibition rate (IC50)
measured quantity: pIC50
Please note pIC50 is a logarithmic value: minus log10 of concentration in mol/L. Answer with that number alone.

Worked examples, 4 molecules total:
Observed pIC50 on human neuroblastoma cell line (SH-SY5Y) for `Fc1ccc(COc2cccc(Nc3ncnc4cc5c(cc34)OCCOCCO5)c2)cc1` , please.
4.26

Query pIC50 on human neuroblastoma cell line (SH-SY5Y) for `FC(F)(F)c1ccc(COc2cccc(Nc3ncnc4cc5c(cc34)OCCOCCO5)c2)cc1`
4.72

# value lookup — system human neuroblastoma cell line (SH-SY5Y), readout pIC50, item `Fc1ccc(COc2ccc(Nc3ncnc4cc5c(cc34)OCCOCCO5)cc2)cc1`
4.08

I'm curious: which pIC50 was measured for `c1ccc(COc2cccc(Nc3ncnc4cc5c(cc34)OCCOCCOCCOCCO5)c2)cc1` tested on human neuroblastoma cell line (SH-SY5Y)?
4.41

Further cases:
Short answer please: pIC50, human neuroblastoma cell line (SH-SY5Y), entry `O=[N+]([O-])c1ccc(COc2cccc(Nc3ncnc4cc5c(cc34)OCCOCCO5)c2)cc1`
4.44

Give recorded pIC50 with human neuroblastoma cell line (SH-SY5Y) for the following molecule: `c1ccc(COc2ccc(Nc3ncnc4cc5c(cc34)OCCOCCOCCOCCO5)cc2)cc1`
5.28

So what pIC50 did `O=[N+]([O-])c1ccc(COc2ccccc2Nc2ncnc3cc4c(cc23)OCCOCCOCCO4)cc1` get with human neuroblastoma cell line (SH-SY5Y)?
4.12
